Test: log P by HPLC-MS
Conditions: log P, HPLC-MS, eluent not stated
ASSAY_READOUT: chromatographic logP
// return a plain number; no unit text

// known answers, use as guide
>>> numeric_value("CC(C)c1nn(-c2cccnc2)c(=O)n1-c1cccc(-c2ncccn2)n1")
1.77
>>> numeric_value("c1cnc(-c2cccc(-c3coc(-c4cccnc4)c3)n2)nc1")
1.26
>>> numeric_value("CC(C)c1nn(-c2cccnc2)c(=O)[nH]1")
0.71
>>> numeric_value("c1cnc(-c2cccc(-n3cc(-c4cccnc4)cn3)n2)nc1")
1.04

The record that follows has no chromatographic logP shown yet.
Consider `c1cnc(-c2cccc(-c3ncc(-c4cccnc4)s3)n2)nc1` . Its measured chromatographic logP is 1.79
